biological target: EGFR on A431 epidermoid carcinoma cells (human, UniProt P00533 25-1210); assay: cell-based or functional assay
Result Type: ADCC EC50 (Molar)
# number only, unit Molar dropped from output

Consider the binder H1H142P (antibody, human IgG1, V domains shown, Human IgG1 Fc (H1H)) VH: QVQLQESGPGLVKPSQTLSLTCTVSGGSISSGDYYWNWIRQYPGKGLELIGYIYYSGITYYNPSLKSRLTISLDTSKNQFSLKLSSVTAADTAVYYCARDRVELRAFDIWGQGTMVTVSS VL: DIQMTQSPSSLSASIGDRITISCQASQDINNYLNWYQQKPGKAPKLLIYDASNLETGIPSRFSGSGSGTDFTFTISGLQPEDIATYYCQHYDSLPLTFGQGTRLEIK and give its measured ADCC EC50.
1.19e-12

Consider the binder H1H171P (antibody, human IgG1, V domains shown, Human IgG1 Fc (H1H)) VH: QVQLVESGGGVVQPGRSLRLSCAASGFTFSIYGMNWVRQGPGKGLDWVAVISDDGSNKDYVDSVRGRFTISRDNSKNTLYLQMNSLSAEDTAVYYCAKDRITGTHYYGMDVWGQGTTVTVSS VL: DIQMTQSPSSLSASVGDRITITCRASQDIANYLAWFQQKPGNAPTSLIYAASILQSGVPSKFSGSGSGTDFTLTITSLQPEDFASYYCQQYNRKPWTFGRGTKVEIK and give its measured ADCC EC50.
8.94e-13

Consider the binder H1H0085N (antibody, V domains shown, Tested in human IgG1 Fc format (H1H prefix); first obtained as H1M (mouse IgG1 Fc) from a hybridoma; also called H1M085N; H1H085N) VH: EVQLVESGGGLVQPGRSLRLSCAASGFTFDDYAMHWVRQAPGKGLEWVSGINWNSDKIAYADSVKGRFTISRDNAENSLFLQMNSLRPEDTALYYCVKRGDFWTEYYDYWGQGTLVTVSS VL: DIVMTQSPLSLPVTPGEPASISCRSSQSLLHSNGYNYLDWYLQKPGQSPHLLIYLVSTRASGVPDRFSGSGSGTDFTLKISRVEAEDVGVYYCIQALQTPWTFGQGTKVEIK and give its measured ADCC EC50.
3.7e-13

Consider the binder H1H116N (antibody, human IgG1, V domains shown, Tested in human IgG1 Fc format (H1H); also called H1M116N) VH: QVQLQESGPGLVKPSQTLSLTCTVSGGSVSSGDYYWSWIRQHPGKGLDWIGHIYYSGSTYYNPSLKSRVTISLDTSKNQFSLKLNSVTAADTAVYYCARTAITGTMDYWGQGTLVTVSS VL: EIVMTQSPATLSVSAGERATLSCRASQSVSSNLAWFQQKPGQAPRLLIYDASTRATGIPARFSGSGSGTEFTLIISSLQSEDFALYYCQQYNSWWTFGQGTKVEIK and give its measured ADCC EC50.
2.51e-13

Consider the binder H1H163P (antibody, human IgG1, V domains shown, Human IgG1 Fc (H1H)) VH: QVQLVESGGGVVQPGRSLRLSCAASGFTFSNYGMHWVRQAPGKGLEWVTLIEHDGSNKNYVDSVKGRFTISRDNSKNTLYLQMNSLRVEDTAVYYCAKDRITGTPWYGMDVWGQGTTVTVSS VL: DIQMTQSPSSLSASVGDRVTITCRASQDIADYLAWFQQKPGKAPKSLIFAASSLESWVPLKFSGSGSGTDFTLTISSLQPEDFATYYCQQYNRFPITFGQGTRLEIK and give its measured ADCC EC50.
2.96e-10
